Numbers sourced from patent US12018001B2.

Target: glucocorticoid receptor (Homo sapiens, UniProt P04150)
Sequence (P04150 whole entry): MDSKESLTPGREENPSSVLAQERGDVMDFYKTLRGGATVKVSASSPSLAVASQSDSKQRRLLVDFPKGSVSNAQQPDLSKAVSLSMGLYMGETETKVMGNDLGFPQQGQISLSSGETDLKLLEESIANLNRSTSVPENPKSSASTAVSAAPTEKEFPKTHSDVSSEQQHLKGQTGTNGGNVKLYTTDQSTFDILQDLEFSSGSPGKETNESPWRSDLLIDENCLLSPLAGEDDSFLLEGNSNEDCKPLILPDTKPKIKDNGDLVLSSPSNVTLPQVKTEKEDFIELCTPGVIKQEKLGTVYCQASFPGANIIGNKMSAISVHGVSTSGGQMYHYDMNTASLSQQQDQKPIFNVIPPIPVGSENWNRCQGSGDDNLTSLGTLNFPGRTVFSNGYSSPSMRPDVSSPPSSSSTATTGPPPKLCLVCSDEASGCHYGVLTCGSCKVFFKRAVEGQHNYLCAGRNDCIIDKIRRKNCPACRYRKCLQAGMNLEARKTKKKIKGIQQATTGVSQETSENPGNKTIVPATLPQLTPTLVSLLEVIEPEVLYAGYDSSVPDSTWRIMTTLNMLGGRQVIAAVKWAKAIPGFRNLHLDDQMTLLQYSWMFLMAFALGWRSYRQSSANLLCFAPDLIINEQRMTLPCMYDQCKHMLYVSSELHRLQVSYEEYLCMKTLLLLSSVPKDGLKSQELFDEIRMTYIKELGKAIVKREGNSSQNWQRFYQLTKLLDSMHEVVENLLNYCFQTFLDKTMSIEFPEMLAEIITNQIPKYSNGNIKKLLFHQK
Assay: Hep G2 TAT assay: induction of TAT by dexamethasone in HepG2 cells
pKi: −log10 of the molar value.
observationType: pKi

> print(dat)
                                    compound  numericvalue
 1  CNS(=O)(=O)c1ccc(C2=CCC(c3[nH]c(=O)[nH]c(=O)c3Cc3ccccc3)CC2)c(F)c1 (centres unmarked)          6.96
 2  Cn1cc(C2=CCC(c3[nH]c(=O)[nH]c(=O)c3Cc3ccccc3)CC2)c(C(F)(F)F)n1 (centres unmarked)          6.77
 3  CS(=O)(=O)c1ccc(C2=CCC(c3[nH]c(=O)[nH]c(=O)c3Cc3cccc(N4CCCC4)n3)CC2)c(F)c1 (centres unmarked)          6.25
 4  N#Cc1ccc(C2=CC[C@@H](c3[nH]c(=O)[nH]c(=O)c3Cc3ccccc3)CC2)c(Cl)c1 (single isomer, unassigned)          7.38
 5  CC(C)Cn1nccc1C1=CCC(c2[nH]c(=O)[nH]c(=O)c2Cc2ccccc2)CC1 (centres unmarked)          6.05
 6  N#Cc1ccc(Cl)c(C2=CCC(c3[nH]c(=O)[nH]c(=O)c3Cc3ccccc3)CC2)c1 (centres unmarked)          6.68
 7  CN(C)S(=O)(=O)c1ccc(C2=CCC(c3[nH]c(=O)[nH]c(=O)c3Cc3ccccc3)CC2)c(Cl)c1 (centres unmarked)          6.59
 8  O=c1[nH]c(C2CC=C(c3ccc(C(F)(F)F)cc3F)CC2)c(Cc2ccccc2)c(=O)[nH]1 (centres unmarked)          6.85
 9  O=c1[nH]c(C2CC=C(c3ccc(Cl)cc3C(F)(F)F)CC2)c(Cc2ccccc2)c(=O)[nH]1 (centres unmarked)          7.42
10  O=c1[nH]c(C2CC=C(c3ccc(OC(F)(F)F)cc3Cl)CC2)c(Cc2ccccc2)c(=O)[nH]1 (centres unmarked)          7.39
11  O=c1[nH]c(C2CC=C(c3cccnc3N3CCCC3)CC2)c(Cc2ccccc2)c(=O)[nH]1 (centres unmarked)          7.35
12  Cc1c(F)cccc1C1=CCC(c2[nH]c(=O)[nH]c(=O)c2Cc2ccccc2)CC1 (centres unmarked)          7.48
13  O=c1[nH]c(C2CC=C(c3ccc(C(F)(F)F)nc3N3CCCC3)CC2)c(Cc2ccccc2)c(=O)[nH]1 (centres unmarked)          7.12
14  O=c1[nH]c(C2CC=C(c3cc(CO)ccc3Cl)CC2)c(Cc2ccccc2)c(=O)[nH]1 (centres unmarked)          6.82
